Ref: PubChem BioAssay AID588780

- System: H9c2 cardiomyocytes, 2-deoxyglucose stress, ATP luminescence, 2 h
- assayProcedure: H9c2 cell survival under 2-deoxyglucose stress – uHTS hits, dose response (AID 588780)
The source made the active and inactive calls.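 Rule for the calls: active = compounds whose fitted half-maximal concentration in the cell-protection dose series is at or below a set limit; inactive = the rest.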
Give your call using only these classes: 1.0 = active, 0.0 = inactive

{"compound": "Cc1cc(C(=O)N/N=C/c2c(CO)cnc(C)c2O)c2ccccc2n1", "className": 0.0}
{"compound": "Cc1ccc(N(CCC#N)C(=O)CSc2nc3ccccc3c(=O)[nH]2)cc1", "className": 0.0}
{"compound": "CC1CCN(CCCNC(=O)c2n[nH]c(=O)c3ccccc23)CC1", "className": 0.0}
{"compound": "Cc1nc2ccccc2c(=O)[nH]1", "className": 0.0}
{"compound": "O=c1[nH]cnc2sc3c(c12)CCC3", "className": 0.0}

Q) Answer briefly: the call reported for CCN(CC)C(=O)c1[nH]cnc1C(=O)NCC(=O)OCc1ccccc1 in this assay.
A) 0.0

Q) Could you kindly confirm the outcome this assay logged for O=C(c1cc(=O)[nH]c2ccccc12)N1CCN(S(=O)(=O)c2ccc3ccccc3c2)CC1 ?
A) 1.0

Q) Could you kindly confirm the outcome this assay logged for O=C(Nc1nc(-c2ccccn2)cs1)c1cc(S(=O)(=O)N2CCOCC2)ccc1F ?
A) 0.0

Q) What did the test return for O=C(N/N=C/c1ccccn1)c1cc(-c2ccncc2)nc2ccccc12 ?
A) 0.0

Q) Test call for this compound, please: O=C(NCCN1CCOCC1)c1cnn2c(-c3ccccc3)cc(-c3ccccc3)nc12
A) 1.0
